Values compiled from PubChem BioAssay AID1159580.

assay: chemical genetic growth profiling, strain panel (AID 1159580);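 note: tested at 20 µM; growth read once vehicle control cultures reached saturation at 30 °C; 1 = growth at the plate median or of vehicle wells; lower values mean less growth of the strain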; conditions: S. cerevisiae deletion strains, growth OD, locus YGR078C, strain PAC10, stronger effect = lower value
About 2,000 (36%) of roughly 5,500 compounds were called active. Another 18% or so got no clear call; they are omitted. The list shows a part of the results.
Listed here: items and their measured normalized growth.
Just the number, please.

{"compound": "CC(N)C(O)c1ccc(O)c(O)c1 (centres undefined)", "measurement_type": "normalized growth", "data_value": 1.02}
{"compound": "COc1ccc2c(c1)[C@]13CCCC[C@H]1[C@H](C2)N(C)CC3", "measurement_type": "normalized growth", "data_value": 0.996}

Qu. Data request, read-out normalized growth, for Cc1cccc(C(=O)c2ccccc2C(=O)O)c1
Ans. 0.997

Qu. Data request, read-out normalized growth, for COc1cc2nc(-c3cccs3)oc(=O)c2cc1OC
Ans. 0.987

Qu. Data request, read-out normalized growth, for CC(=O)N[C@@H](Cc1c[nH]c2ccccc12)C(=O)O
Ans. 1.01

Qu. Data request, read-out normalized growth, for COc1cccc(NC(=O)NC2Cc3ccccc3C2)c1
Ans. 0.989

###

experiment: chemical genetic growth profiling, strain panel (AID 1159580); details: S. cerevisiae deletion strains, growth OD, locus YGL248W, strain PDE1
Hit rate of the full screen: of about 5,500 compounds, about 2,000 (36%) were called active. Not shown: some 18% with an inconclusive outcome. Cut-off read from the data, not from the text of the source: active = normalized growth mostly below about 0.91 (no sharp cut-off); inconclusive = no clear call, values can overlap the other calls; inactive = mostly above about 0.92. The list shows a part of the results.
Log the outcome using a class from label 1 for active, label 0 for inactive

Below are worked cases with known answers.
{"compound": "CCOc1ccc(C(=O)c2ccc(O)c(O)c2O)cc1", "category": "label 1"}
{"compound": "COc1cc2cc3c4cc(OC)c(OC)cc4cc[n+]3c(C)c2cc1OC", "category": "label 0"}
{"compound": "CCOc1ccc(NC(C)=O)cc1", "category": "label 0"}
{"compound": "CCOc1ccc(C(=O)c2cc(O)c(OC)c(OC)c2O)cc1", "category": "label 0"}
{"compound": "O=C(O)c1cc(=O)c2c(Cl)cc(Cl)cc2[nH]1", "category": "label 0"}

Qu. Kindly provide the recorded test outcome for the following compound: CC(=O)OC1CCC2(C)C3CC(=O)C4(C)C(CC5OC6(CCC(C)CO6)[C@@H](C)C54)C3CC[C@H]2C1 (stereo partly drawn)
Ans. label 0

Qu. Kindly provide the recorded test outcome for the following compound: O=C(CCc1ccc(O)cc1)c1c(O)cc(O)cc1O[C@@H]1O[C@H](CO)[C@@H](O)[C@H](O)[C@H]1O
Ans. label 0

Qu. Kindly provide the recorded test outcome for the following compound: CC(=O)OCC(=O)[C@@]1(O)CCC2C3CC[C@@H]4C[C@H](OC(C)=O)CC[C@]4(C)C3C(=O)C[C@@]21C (stereo partly drawn)
Ans. label 0

###

assay: chemical genetic growth profiling, strain panel (AID 1159580); settings: S. cerevisiae deletion strains, growth OD, locus YKR001C, strain vps1, stronger effect = lower value
In all, about 5,500 compounds went through this assay and about 2,000 (36%) were called active. Another 18% or so got no clear call; they are omitted. The list shows a part of the results.
Response field label: string, one of criterion met (normalized growth strictly below 1) or criterion not met.

{"smiles_structure": "COc1cc2cc3c4cc(OC)c(OC)cc4cc[n+]3c(C)c2cc1OC", "category": "criterion not met"}
{"smiles_structure": "COc1ccc2c(=O)ccoc2c1", "category": "criterion met"}

Qu. Identify whether the molecule COc1c2ccoc2cc2oc(C)cc(=O)c12 records normalized growth below 1.
Ans. criterion met

###

assay: chemical genetic growth profiling, strain panel (AID 1159580); conditions: S. cerevisiae deletion strains, growth OD, locus YCR088W, strain abp1, stronger effect = lower value
About 2,000 (36%) of roughly 5,500 compounds were called active. Not shown: some 18% with an inconclusive outcome. The list shows a part of the results.
Listed here: items and their measured normalized growth.

Qu. Data request, read-out normalized growth, for COc1ccc([C@H]2COc3c(ccc(O)c3OC)C2)c(OC)c1O
Ans. 0.984 (inactive)

Qu. Data request, read-out normalized growth, for O=C(O)c1cc(=O)c2c(Cl)cc(Cl)cc2[nH]1
Ans. 1.01 (inactive)

Qu. Data request, read-out normalized growth, for CC1(C)C(=O)[C@@H]2C[C@@]3(O)C4=CC(=O)O[C@@H](c5ccoc5)[C@]4(C)CCC3[C@@](C)(C2=O)[C@H]1CC(=O)O (stereo partly drawn)
Ans. 1 (inactive)

###

assay: chemical genetic growth profiling, strain panel (AID 1159580);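 note: tested at 20 µM; growth read once vehicle control cultures reached saturation at 30 °C; 1 = growth at the plate median or of vehicle wells; lower values mean less growth of the strain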; details: S. cerevisiae deletion strains, growth OD, locus YJL154C, strain vps35, stronger effect = lower value
The campaign covered roughly 5,500 compounds. About 2,000 (36%) were called active. Not shown: some 18% with an inconclusive outcome. The list shows a part of the results. Where a SMILES comes first, the peptide text is derived from it. Bridges are numbered along the chain shown (N, C = ends). [ ]: non-standard residue; d: D form. The star is where a group is joined. Octanoyl(6-Me) = CCC(C)CCCCC(=O)*; Dab = NCC[CH](N)C(=O)O
measurement_type: normalized growth
Just the number, please.

{"compound": "C=C(C)[C@H]1Cc2c(ccc3c2O[C@@H]2COc4cc(OC)c(OC)cc4[C@@H]2C3=O)O1", "data_value": 1}
{"compound": "NCCc1c[nH]c2ccccc12", "data_value": 0.948}
{"compound": "CC1(C)C=Cc2cc3ccc(=O)oc3cc2O1", "data_value": 0.933}
{"compound": "CCC(C)CCCCC(=O)NC(CCN)C(=O)NC(C(=O)NC(CCN)C(=O)NC1CCNC(=O)C(C(C)O)NC(=O)C(CCN)NC(=O)C(CCN)NC(=O)C(CC(C)C)NC(=O)C(Cc2ccccc2)NC(=O)C(CCN)NC1=O)C(C)O (configuration not stated) ({Octanoyl(6-Me)}-[Dab]T[Dab][Dab][Dab]FL[Dab][Dab]T; lactam 4-C; configuration not given here)", "data_value": 1.01}
{"compound": "Cc1c(NC(=O)c2cccnc2)c(=O)n(-c2ccccc2)n1C", "data_value": 0.989}
{"compound": "CC(=O)O[C@H]1CC[C@]2(C)C3CC[C@@]4(C)C(CC5O[C@@]6(CCC(C)CO6)[C@@H](C)C54)C3CC[C@@H]2C1 (some centres not stated)", "data_value": 1.01}

Now let's try a different one.
Qu. Data request, read-out normalized growth, for CC(=O)O[C@@H]1CC[C@]2(C)C3CC[C@]4(C)C(=O)CCC4C3CC[C@H]2C1 (some centres not stated)
Ans. 0.988

###

test: chemical genetic growth profiling, strain panel (AID 1159580);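 note: tested at 20 µM; growth read once vehicle control cultures reached saturation at 30 °C; 1 = growth at the plate median or of vehicle wells; lower values mean less growth of the strain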; details: S. cerevisiae deletion strains, growth OD, locus YDL017W, strain CDC7, stronger effect = lower value
The campaign covered roughly 5,500 compounds. About 2,000 (36%) were called active. Inconclusive results (about 18%) are left out. The list shows a part of the results.
measurement_type: normalized growth
Just the number, please.

The following compounds have reported results that may help.
{"compound": "CSc1nnc(COc2ccc(C)c3c2CCC3)n1-c1ccccc1", "measurement_type": "normalized growth", "data_value": 0.991}
{"compound": "O=C(Nc1cccnc1)c1cc2c(s1)-c1ccccc1CC2", "measurement_type": "normalized growth", "data_value": 0.937}
{"compound": "FC(F)(F)c1cc(-c2ccc(Cl)cc2)n[nH]1", "measurement_type": "normalized growth", "data_value": 0.931}
{"compound": "S=C(N/N=C\\c1cccs1)NC1CC2CCC1C2 (stereo unspecified)", "measurement_type": "normalized growth", "data_value": 0.941}
{"compound": "CC(C)(C)C(=O)c1sc2sc(C(=O)C(C)(C)C)c(N)c2c1N", "measurement_type": "normalized growth", "data_value": 0.993}

Qu. Data request, read-out normalized growth, for C/C(=N/NC(=O)c1ccc(C(C)(C)C)cc1)c1ccccc1O
Ans. 0.979

###

experiment: chemical genetic growth profiling, strain panel (AID 1159580);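 note: tested at 20 µM; growth read once vehicle control cultures reached saturation at 30 °C; 1 = growth at the plate median or of vehicle wells; lower values mean less growth of the strain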; conditions: S. cerevisiae deletion strains, growth OD, locus YLR258W, strain gsy2
The campaign covered roughly 5,500 compounds. About 2,000 (36%) were called active. Roughly 18% stayed inconclusive and do not appear here. Cut-off read from the data, not from the text of the source: active = normalized growth mostly below about 0.91 (no sharp cut-off); inconclusive = no clear call, values can overlap the other calls; inactive = mostly above about 0.92. Some of the results follow.
Log the outcome using a class from active, inactive

{"compound": "CC(=O)O[C@H]1CC[C@]2(C)C3CC[C@@]4(C)C(CC5O[C@@]6(CCC(C)CO6)[C@@H](C)C54)C3CC[C@@H]2C1 (stereo not given in full)", "category": "inactive"}

Qu. Kindly provide the recorded test outcome for the following compound: CC1(C)S[C@@H]2[C@H](NC(=O)[C@H](C(=O)O)c3cccs3)C(=O)N2[C@H]1C(=O)O
Ans. inactive

Qu. Kindly provide the recorded test outcome for the following compound: O=c1oc2c(O)c(O)cc3c(=O)oc4c(O)c(O)cc1c4c23
Ans. active

Qu. Kindly provide the recorded test outcome for the following compound: CC(=O)O[C@@H]1CC[C@]2(C)C3CC[C@]4(C)C(=O)CCC4C3CC[C@H]2C1 (stereo not given in full)
Ans. inactive

Qu. Kindly provide the recorded test outcome for the following compound: Cc1onc(-c2c(Cl)cccc2Cl)c1C(=O)N[C@@H]1C(=O)N2[C@@H]1SC(C)(C)[C@@H]2C(=O)O
Ans. inactive
